Origin of measurements: patent US20150335657A1

- Test system: human cytomegalovirus (HCMV) AD169 strain
- assay_info: Antiviral activity against HCMV in MRC5 fibroblasts (virus yield, fluorescent focus assay)
- Format: cell-based
- conditions_used: Human betaherpesvirus 5, HCMV AD169, 1 infectious unit/cell, treated 2 h after infection, virus in medium at 96 h
measurement_type: IC50 (µM)
Numbers only, in µM.

Worked cases, answers included:
query: Field request: IC50 | item: CNC(=O)c1cccc(CN(CCC(C)C(C)C)S(=O)(=O)c2c(C)noc2C)c1 (stereo not drawn)
result: 10.2

query: Field request: IC50 | item: CCOc1cc(C)n(C(CNc2cnc3ccccc3c2)C(C)c2cccnc2C)n1 (stereo not drawn)
result: 8.26

query: Field request: IC50 | item: CC(CCNc1cccnc1)c1c[nH]c2ccccc12 (stereo not drawn)
result: 15.8

query: Field request: IC50 | item: CCCN1CC(C(C)c2ccccc2OC)N(c2cccnc2)C1=O (stereo not drawn)
result: 9.91

query: Field request: IC50 | item: CC(c1ccc2nccnc2c1)c1cnc(N2CCc3ccccc3C2)s1 (stereo not drawn)
result: 4.58

***
query: Field request: IC50 | item: Cc1ccccc1C(C)C(CO)NC(=O)c1cn(C)cn1 (stereo not drawn)
result: 15.8
